Value source: patent US20240043542A1

# TGT: T1, mouse B7-H4 (recombinant, BLI) (mouse, UniProt Q7TSP5 29-256, limits assumed)
# T1 construct: also called murine B7-H4
# T1 sequence: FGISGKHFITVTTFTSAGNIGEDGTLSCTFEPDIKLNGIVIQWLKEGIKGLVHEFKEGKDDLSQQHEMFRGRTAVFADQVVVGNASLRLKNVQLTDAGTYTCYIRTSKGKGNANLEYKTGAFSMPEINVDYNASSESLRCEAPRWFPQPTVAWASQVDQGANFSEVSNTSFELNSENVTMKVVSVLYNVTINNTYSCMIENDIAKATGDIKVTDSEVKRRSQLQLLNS
# ASSAY PROTOCOL: BLI, antigen on Protein A tips;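 further: Anti-B7-H4 antibodies assessed for affinity toward the B7-H4 extracellular domain using biolayer interferometry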
pKd: −log10 of the molar value.
METRIC: pKd

binder="B7-H4 antibody 22216 (antibody, human IgG1, kappa, V domains shown, human IgG1/kappa) VH: QVQLQESGPGLVKPSQTLSLTCTVSGGSISDGSYYWSWIRQHPGKGLEWIGNIYYSGSTYYNPSLRSRVTMSVDTSKNQFSLKLSSVTAADTAVYYCARGLSTIDEAFDPWGQGTLVTVSS VL: DIQMTQSPSTLSASVGDRVTITCRASKSISSWLAWYQQKPGKAPKLLIYEASSLHSGVPSRFSGSGSGTEFTLTISSLQPDDFATYYCQQDNSYPYTFGGGTKVEIKR" assay_value=8.83
binder="B7-H4 antibody 15489 (antibody, human IgG1, kappa, V domains shown, human IgG1/kappa) VH: QVQLQESGPGLVKPSETLSLTCTVSGGSISSYYWSWIRQPPGKGLEWIGYIYSSGSTNYNPSLKSRVTISVDTSKNQFSLKLSSVTAADTAVYYCARGSGQYAAPDYGMDVWGQGTTVTVSS VL: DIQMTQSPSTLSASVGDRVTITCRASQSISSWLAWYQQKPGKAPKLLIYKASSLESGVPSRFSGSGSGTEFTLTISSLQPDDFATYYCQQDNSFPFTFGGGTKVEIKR" assay_value=6.70
binder="B7-H4 antibody 15465 (antibody, human IgG1, kappa, V domains shown, human IgG1/kappa) VH: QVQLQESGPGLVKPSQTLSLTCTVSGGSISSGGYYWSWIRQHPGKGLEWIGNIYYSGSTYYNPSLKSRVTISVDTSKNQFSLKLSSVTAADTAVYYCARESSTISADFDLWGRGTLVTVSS VL: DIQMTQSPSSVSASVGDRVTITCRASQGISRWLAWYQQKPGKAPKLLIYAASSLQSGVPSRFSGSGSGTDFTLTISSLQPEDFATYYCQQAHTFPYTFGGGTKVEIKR" assay_value=7.05
binder="B7-H4 antibody 20496 (antibody, human IgG1, kappa, V domains shown, human IgG1/kappa) VH: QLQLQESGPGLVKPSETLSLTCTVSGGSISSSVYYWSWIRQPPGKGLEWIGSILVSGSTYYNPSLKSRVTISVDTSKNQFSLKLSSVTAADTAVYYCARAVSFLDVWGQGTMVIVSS VL: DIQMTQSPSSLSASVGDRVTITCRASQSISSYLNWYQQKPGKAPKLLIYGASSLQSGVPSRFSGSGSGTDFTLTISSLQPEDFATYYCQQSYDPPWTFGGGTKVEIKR" assay_value=7.61
binder="B7-H4 antibody 15461 (antibody, human IgG1, kappa, V domains shown, human IgG1/kappa) VH: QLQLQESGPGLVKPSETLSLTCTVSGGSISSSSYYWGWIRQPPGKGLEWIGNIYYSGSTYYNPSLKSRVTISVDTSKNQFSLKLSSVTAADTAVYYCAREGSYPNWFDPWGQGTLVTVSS VL: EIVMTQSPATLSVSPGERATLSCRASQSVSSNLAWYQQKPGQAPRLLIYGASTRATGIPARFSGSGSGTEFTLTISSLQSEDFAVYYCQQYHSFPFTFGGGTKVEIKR" assay_value=7.25
binder="B7-H4 antibody 22208 (antibody, human IgG1, kappa, V domains shown, human IgG1/kappa) VH: QLQLQESGPGLVKPSETLSLTCTVSGGSIKSGSHYWGWIRQPPGKGLEWIGNIYYSGSTYYNPSLKSRVTMSVDTSKNQFSLKLSSVTAADTAVYYCAREGSYPNWFDPWGQGTLVTVSS VL: EIVMTQSPATLSVSPGERATLSCRASQSVSTNLAWYQQKPGQAPRLLIYDASARVTGIPARFSGSGSGTEFTLTISSLQSEDFAVYYCQQYHSFPFTFGGGTKVEIKR" assay_value=7.78
binder="B7-H4 antibody 20516 (antibody, human IgG1, kappa, V domains shown, human IgG1/kappa) VH: QVQLQESGPGLVKPSETLSLTCTVSGGSIISYYWGWIRQPPGKGLEWIGYIYSSGSTSYNPSLKSRVTISVDTSKNQFSLKLSSVTAADTAVYYCARGSGLYAAPDYGLDVWGQGTTVTVSS VL: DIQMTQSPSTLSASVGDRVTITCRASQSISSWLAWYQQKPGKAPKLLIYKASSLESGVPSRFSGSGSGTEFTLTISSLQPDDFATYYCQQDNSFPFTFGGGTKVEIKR" assay_value=7.38
